molecular target: cAMP-dependent protein kinase catalytic subunit alpha (Homo sapiens, UniProt P17612); format: functional
Calls of active or inactive are those of the source.
Choose the fitting class; nothing outside active, inactive is accepted.

NC(=O)c1cc(-c2ccnc(N)n2)[nH]c1-c1ccc(Cl)cc1Cl    active
NC(COc1cncc(-c2ccc3c(c2)C(=Cc2ccco2)C(=O)N3)c1)Cc1c[nH]c2ccccc12 (centres undefined)    active
NC(=O)c1ccc(-c2ccnc(N)n2)cc1N1CCCCC1    inactive

Now turn to the next compound.
Exercise: What did the test return for Cc1ccc(-n2nc(C(C)(C)C)cc2NC(=O)Nc2ccc(OCCN3CCOCC3)c3ccccc23)cc1 ?
Solution: inactive

Value source: ChEMBL document CHEMBL1201862
